B1: HDV Ribozyme (parent)
chain: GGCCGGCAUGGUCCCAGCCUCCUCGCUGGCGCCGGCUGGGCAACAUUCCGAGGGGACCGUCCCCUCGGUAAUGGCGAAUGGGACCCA

- Variants of: B1
- Experiment Description: self-cleavage, relative activity (ratio to wild type); higher = more cleavage; co-transcriptional
Experimental Readout: self-cleavage

Measured self-cleavage, G2U C4U : 0.0755

Record summary for C32U G82U : reported self-cleavage = 0.256

In plain terms, C33U C44A has a documented self-cleavage of 0.499

response.value for C13G C63U (field: self-cleavage) = 0

The value of self-cleavage measured for the variant C36G C44A turned out to be 0.128

Sure, the documented self-cleavage for U47C G68A is 0.867

self-cleavage reported for this variant G29A C57G : 0.267

Quick note, self-cleavage for U47G C62A landed at 1.02

Lookup result for C21G A83G ; measured self-cleavage: 0.0987

Lookup result for C22A G55U ; measured self-cleavage: 0.353

The reported self-cleavage of the variant C13G C48U was 0.0739
